Target: Mtr4 R1030A-archless R1030A (Saccharomyces cerevisiae) (UniProt P47047)
Sequence: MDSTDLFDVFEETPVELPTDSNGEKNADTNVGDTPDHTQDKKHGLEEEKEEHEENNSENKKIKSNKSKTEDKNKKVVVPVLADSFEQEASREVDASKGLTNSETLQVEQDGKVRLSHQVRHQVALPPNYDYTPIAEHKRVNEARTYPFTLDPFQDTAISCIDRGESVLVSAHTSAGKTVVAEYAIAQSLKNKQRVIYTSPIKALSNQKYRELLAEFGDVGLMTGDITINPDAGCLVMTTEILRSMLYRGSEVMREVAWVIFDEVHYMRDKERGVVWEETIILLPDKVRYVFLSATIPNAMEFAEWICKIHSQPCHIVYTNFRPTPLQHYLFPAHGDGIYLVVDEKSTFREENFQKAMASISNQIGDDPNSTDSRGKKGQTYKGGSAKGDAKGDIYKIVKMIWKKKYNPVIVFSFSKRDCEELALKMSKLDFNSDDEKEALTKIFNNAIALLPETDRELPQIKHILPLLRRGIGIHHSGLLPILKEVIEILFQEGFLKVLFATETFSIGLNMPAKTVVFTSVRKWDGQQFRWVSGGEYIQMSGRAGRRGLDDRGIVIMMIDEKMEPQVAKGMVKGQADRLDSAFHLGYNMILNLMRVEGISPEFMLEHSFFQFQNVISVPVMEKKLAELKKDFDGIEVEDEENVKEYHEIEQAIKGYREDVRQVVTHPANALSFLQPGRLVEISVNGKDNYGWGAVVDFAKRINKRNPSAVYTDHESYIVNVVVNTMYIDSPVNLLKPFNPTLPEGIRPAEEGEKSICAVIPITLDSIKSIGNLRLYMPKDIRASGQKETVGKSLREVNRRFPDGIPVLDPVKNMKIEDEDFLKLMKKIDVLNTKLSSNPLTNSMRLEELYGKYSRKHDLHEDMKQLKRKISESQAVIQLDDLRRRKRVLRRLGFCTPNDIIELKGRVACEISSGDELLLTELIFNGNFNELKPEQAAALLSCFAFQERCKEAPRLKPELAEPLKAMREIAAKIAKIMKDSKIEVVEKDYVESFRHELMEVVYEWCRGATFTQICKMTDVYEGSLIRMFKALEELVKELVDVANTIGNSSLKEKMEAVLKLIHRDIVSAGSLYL
Experiment: fluorescence anisotropy
Conditions: FA: 40 mM MOPS pH 6.5, 100 mM NaCl, 0.5 mM MgCl2, 5% glycerol, 0.01% NP-40 substitute, 2 mM DTT, 60 nM RNA, 30 C; EMSA conditions not in material
Result type: Kd

Any idea what Kd came out for GCGUCUUUACGGUGCUUAAAAA / AGCACCGUAAAGACGC [poly(A) substrate R22A/R16, fluorescein] on Mtr4 R1030A-archless R1030A (Saccharomyces cerevisiae) (UniProt P47047)?
> 10 µM
